molecular target: human aurora kinase A (Homo sapiens, UniProt O14965); construct: recombinant, full length human aurora kinase A, N-terminally fused to GST; GST (N); purchased ProQuinase (so in the source); host or cells: baculovirus / Sf21 insect cells; assay: Aurora kinase A inhibitory activity assay (Flashplate, 33P-ATP); assay type: biochemical; settings: 10 μM ATP; read-out: Enzyme inhibition IC50 nM (Aurora kinase A)
Sequence (O14965 whole entry, the tested form may be a part): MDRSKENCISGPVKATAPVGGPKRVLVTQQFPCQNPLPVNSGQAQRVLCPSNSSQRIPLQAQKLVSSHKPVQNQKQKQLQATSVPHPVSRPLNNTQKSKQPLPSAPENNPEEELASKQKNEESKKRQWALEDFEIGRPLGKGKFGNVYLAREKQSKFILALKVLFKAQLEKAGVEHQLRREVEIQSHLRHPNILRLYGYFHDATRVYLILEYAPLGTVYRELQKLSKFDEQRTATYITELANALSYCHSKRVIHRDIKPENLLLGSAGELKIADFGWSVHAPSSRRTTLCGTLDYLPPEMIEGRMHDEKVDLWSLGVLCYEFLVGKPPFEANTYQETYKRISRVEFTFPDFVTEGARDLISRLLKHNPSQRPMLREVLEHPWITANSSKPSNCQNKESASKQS
Recorded Endpoint: IC50 (nM)

[[record]]
compound = "COc1cc2c(Oc3ccc(NC(=O)c4ccccc4)cc3)ccnc2cc1OCC[C@H](N)C(=O)OC(C)(C)C [Compound 14]"
value_measured = 3000


[1] COc1cc2c(Oc3ccc(NC(=O)c4ccccc4)cc3)ccnc2cc1OCC[C@H](N)C(=O)O [Compound 13]
[2] COc1cc2c(Oc3ccc(NC(=O)c4ccccc4)cc3)ccnc2cc1OCC[C@H](N)C(=O)OC1CCCC1 [Compound 12]
[3] COc1cc2nccc(Oc3ccc(NC(=O)c4ccccc4)cc3)c2cc1OC [Compound 11, reference compound]
Asked: Highest IC50 first, then in falling order down to the smallest. Give the labels in the order requested.
Given back: 2, 1, 3
